system: human GPR119 receptor (Homo sapiens, UniProt Q8TDV5, S329A/T327A)
Construct: N-terminal leader […]; expressed in transfected cells
Sequence (Q8TDV5 with tags, fused parts or gaps T327A/S329A): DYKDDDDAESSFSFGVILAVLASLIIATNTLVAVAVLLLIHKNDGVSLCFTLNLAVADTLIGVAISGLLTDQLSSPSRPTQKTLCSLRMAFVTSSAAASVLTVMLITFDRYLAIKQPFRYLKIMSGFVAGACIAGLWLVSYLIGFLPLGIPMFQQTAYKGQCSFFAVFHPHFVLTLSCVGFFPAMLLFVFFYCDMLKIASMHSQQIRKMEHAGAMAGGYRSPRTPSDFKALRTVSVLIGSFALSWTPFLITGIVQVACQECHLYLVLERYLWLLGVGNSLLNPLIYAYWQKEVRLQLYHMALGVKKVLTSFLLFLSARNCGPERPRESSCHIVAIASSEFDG
procedure-details: cAMP assay (LANCE cAMP-384) in HEK293 cells stably expressing mutant human GPR119 receptor
Type: cell-based
condition-label: the 32nd table; read-out: EC50
For each record, write down the corresponding pEC50.
Numbers only, as −log10 of the molar value.

Would you mind listing pEC50 for each of the following compounds?
1. CS(=O)(=O)c1ccc(N2CCC(=NOC3CCN(c4ccccn4)CC3)CC2)c(F)c1
2. CS(=O)(=O)c1ccc(N2CCC(=NOC3CCN(c4ncc(Br)cc4F)CC3)CC2)c(F)c1
3. COC(=O)c1cnc(N2CCC(ON=C3CCN(c4ccc(S(C)(=O)=O)cc4F)CC3)CC2)nc1
4. CS(=O)(=O)c1ccc(N2CCC(=NOC3CCN(c4ncccn4)CC3)CC2)c(F)c1

OUT:
1. 6.34
2. 6.71
3. 6.59
4. 6.62

---

system: human GPR119 receptor (Homo sapiens, UniProt Q8TDV5, S329A/T327A)
Construct: N-terminal leader […]; expressed in transfected cells
procedure-details: cAMP assay (LANCE cAMP-384) in HEK293 cells stably expressing mutant human GPR119 receptor
Format: cell-based
condition-label: the 30th table; read-out: EC50
For each record, write down the corresponding EC50.
Numbers only, in nM.

Would you mind listing EC50 for each of the following molecules?
1. Cc1nnnn1Cc1cnc(N2CCC(=NOC3CCN(C(=O)OC(C)C)CC3)CC2)c(F)c1
2. Cc1cnn(Cc2cnc(N3CCC(=NOC4CCN(C(=O)OC(C)C)CC4)CC3)c(F)c2)c1
3. CC(C)OC(=O)N1CCC(ON=C2CCN(c3ncc(CS(C)(=O)=O)cc3F)CC2)CC1
4. CC(C)OC(=O)N1CCC(ON=C2CCN(c3ncc(Cn4ccnn4)cc3F)CC2)CC1
5. CC(C)OC(=O)N1CCC(ON=C2CCN(c3ncc(Cn4nccn4)cc3F)CC2)CC1

OUT:
1: 1150; 2: 445; 3: 484; 4: 1060; 5: 765

---

For each record, write down the corresponding EC50.
system: human GPR119 receptor (Homo sapiens, UniProt Q8TDV5, S329A/T327A)
Construct: N-terminal leader […]; expressed in transfected cells
procedure-details: cAMP assay (LANCE cAMP-384) in HEK293 cells stably expressing mutant human GPR119 receptor
Type: cell-based
condition-label: the 43rd table, compounds 75-1 to 75-38; read-out: EC50
Description: Quantitative detection of cAMP accumulation from cells expressing human GPR119 receptor was achieved using Perkin Elmer's LANCE cAMP-384 Kit (Cat#AD0264) according to the manufacturer's protocol. […] After 1 hour, bound europium-labeled cAMP tracer was measured using a Perkin Elmer ViewLux. The quantity of cAMP generated in each well was derived from a standard curve. […]
Numbers only, in µM.

Would you mind listing EC50 for each of the following compounds?
1. CC(C)OC(=O)N1CCC(ON=C2CCN(c3cc(F)c(CC(=O)N4CCCCC4CN4CCCC4)cc3F)CC2)CC1 (stereo not shown)
2. CC(C)OC(=O)N1CCC(ON=C2CCN(c3cc(F)c(CC(=O)N4CCCC(CN)C4)cc3F)CC2)CC1 (stereo not shown)
3. CC(C)OC(=O)N1CCC(ON=C2CCN(c3cc(F)c(CC(=O)N4CCCCC4CN4CCOCC4)cc3F)CC2)CC1 (stereo not shown)
4. CC(C)OC(=O)N1CCC(ON=C2CCN(c3cc(F)c(CC(=O)NCC4CCCNC4)cc3F)CC2)CC1 (stereo not shown)
5. CC(C)OC(=O)N1CCC(ON=C2CCN(c3cc(F)c(CC(=O)NC4CCNC4)cc3F)CC2)CC1 (stereo not shown)
6. CC(C)OC(=O)N1CCC(ON=C2CCN(c3cc(F)c(CC(=O)NCCN)cc3F)CC2)CC1

OUT:
1: 0.333; 2: 0.108; 3: 0.192; 4: 0.38; 5: 0.152; 6: 0.41

Would you mind listing EC50 for each of the following compounds?
1. CC(C)OC(=O)N1CCC(ON=C2CCN(c3cc(F)c(CC(=O)NCC4CCNCC4)cc3F)CC2)CC1
2. CC(C)OC(=O)N1CCC(ON=C2CCN(c3cc(F)c(CC(=O)NCCN(C)C)cc3F)CC2)CC1
3. CC(C)OC(=O)N1CCC(ON=C2CCN(c3cc(F)c(CC(=O)NCC4CCNC4)cc3F)CC2)CC1 (stereo not shown)

OUT:
[0.236, 0.254, 0.797]

Would you mind listing EC50 for each of the following compounds?
1. CC(C)OC(=O)N1CCC(ON=C2CCN(c3cc(F)c(CC(=O)N4CCNCC4)cc3F)CC2)CC1
2. CC(C)OC(=O)N1CCC(ON=C2CCN(c3cc(F)c(CC(=O)N4CC[C@@H](N)C4)cc3F)CC2)CC1
3. CC(C)OC(=O)N1CCC(ON=C2CCN(c3cc(F)c(CC(=O)N4CCC(CN5CCCCC5)C4)cc3F)CC2)CC1 (stereo not shown)
4. CC(C)OC(=O)N1CCC(ON=C2CCN(c3cc(F)c(CC(=O)N4CC[C@H](N)C4)cc3F)CC2)CC1
5. CC(C)OC(=O)N1CCC(ON=C2CCN(c3cc(F)c(CC(=O)N4CCC[C@H]4CN4CCCC4)cc3F)CC2)CC1
6. CC(C)OC(=O)N1CCC(ON=C2CCN(c3cc(F)c(CC(=O)NC4CCNCC4)cc3F)CC2)CC1

OUT:
[0.092, 0.078, 0.171, 0.045, 2.91, 0.098]

Would you mind listing EC50 for each of the following compounds?
1. CC(C)OC(=O)N1CCC(ON=C2CCN(c3cc(F)c(CC(=O)N4CCC(CN5CCCC5)CC4)cc3F)CC2)CC1
2. CC(C)OC(=O)N1CCC(ON=C2CCN(c3cc(F)c(CC(=O)N4CCCCC4CN4CCCCC4)cc3F)CC2)CC1 (stereo not shown)
3. CC(C)OC(=O)N1CCC(ON=C2CCN(c3cc(F)c(CC(=O)N4CCCC(CN(C)C)C4)cc3F)CC2)CC1 (stereo not shown)
4. CC(C)OC(=O)N1CCC(ON=C2CCN(c3cc(F)c(CC(=O)N4CCCCC4CN(C)C)cc3F)CC2)CC1 (stereo not shown)
5. CC(C)OC(=O)N1CCC(ON=C2CCN(c3cc(F)c(CC(=O)NCC4CCN(C)C4)cc3F)CC2)CC1 (stereo not shown)
6. CC(C)OC(=O)N1CCC(ON=C2CCN(c3cc(F)c(CC(=O)N4CCC[C@@H]4CN4CCCC4)cc3F)CC2)CC1

OUT:
[0.146, 0.3, 0.155, 0.322, 0.128, 0.246]

---

system: human GPR119 receptor (Homo sapiens, UniProt Q8TDV5, S329A/T327A)
Construct: N-terminal leader […]; expressed in transfected cells
Sequence (Q8TDV5 with tags, fused parts or gaps T327A/S329A): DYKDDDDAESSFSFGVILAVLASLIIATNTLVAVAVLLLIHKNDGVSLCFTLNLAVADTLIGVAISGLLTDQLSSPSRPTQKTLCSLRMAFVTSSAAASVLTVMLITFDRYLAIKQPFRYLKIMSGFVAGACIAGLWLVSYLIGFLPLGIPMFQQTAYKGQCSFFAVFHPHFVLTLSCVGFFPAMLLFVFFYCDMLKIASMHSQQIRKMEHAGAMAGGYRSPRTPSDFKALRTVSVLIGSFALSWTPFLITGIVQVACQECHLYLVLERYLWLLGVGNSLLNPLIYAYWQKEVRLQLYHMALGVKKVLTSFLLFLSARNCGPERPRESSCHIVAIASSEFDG
procedure-details: cAMP assay (LANCE cAMP-384) in HEK293 cells stably expressing mutant human GPR119 receptor
Format: cell-based
condition-label: cAMP accumulation, HEK293 cells stably expressing mutant human GPR119; read-out: EC50
For each record, write down the corresponding pEC50.
Give bare numbers, as −log10 of the molar value.

Field: example entries. Status: answers known.
compound=Cc1nc(N2CCC(=NOC3CCN(C(=O)OC(C)C)CC3)CC2)c(F)cc1CO measured_endpoint=pEC50 reported_measurement=6.69
compound=CC(C)OC(=O)N1CCC(ON=C2CCN(c3cc(F)c(Cn4cccc4)cc3F)CC2)CC1 measured_endpoint=pEC50 reported_measurement=6.33
compound=CC(C)OC(=O)N1CCC(ON=C2CCN(c3cc(F)c(CN4CCOC4=O)cc3F)CC2)CC1 measured_endpoint=pEC50 reported_measurement=6.85
compound=CC(C)OC(=O)N1CCC(ON=C2CCN(c3cc(F)c([C@@H](C)N)cc3F)CC2)CC1 measured_endpoint=pEC50 reported_measurement=6.27
compound="CC(CO)CNC(=O)c1cc(F)c(N2CCC(=NOC3CCN(C(=O)OC(C)C)CC3)CC2)cc1F (stereo not shown)" measured_endpoint=pEC50 reported_measurement=7.33
compound=CC(C)OC(=O)N1CCC(ON=C2CCN(c3cc(F)c(Cn4cccc5ncnc4-5)cc3F)CC2)CC1 measured_endpoint=pEC50 reported_measurement=6.15
compound=Cc1cc(N2CCC(=NOC3CCN(C(=O)OC(C)C)CC3)CC2)c(F)cc1C(N)=O measured_endpoint=pEC50 reported_measurement=6.27
compound=Cc1cc(C=O)ccc1N1CCC(=NOC2CCN(C(=O)OC(C)C)CC2)CC1 measured_endpoint=pEC50 reported_measurement=5.50

Would you mind listing pEC50 for each of the following compounds?
1. CC(C)OC(=O)N1CCC(ON=C2CCN(c3nc(Cl)ncc3Cl)CC2)CC1
2. CC(C)OC(=O)N1CCC(ON=C2CCN(c3cc(F)c(-c4nccn4C)cc3F)CC2)CC1
3. COC(=O)CCNCc1cc(F)c(N2CCC(=NOC3CCN(C(=O)OC(C)C)CC3)CC2)cc1F

OUT:
[6.77, 5.26, 5.94]
